Listing of recorded relative viability EC50 by entry.
# Tested on: U2OS
# test name: relative viability EC50 (midpoint between 100% and the lowest measured viability); higher = less toxic
# stated conditions: 72 h
Give the number; nM is assumed, so skip it.

CN(C)Cc1c(C(=O)NCCOc2ccc(C(=O)NO)cc2)oc2ccccc12	292

Considering O=[N+]([O-])c1ccc2c(c1)S(=O)(=O)C=C2 , its relative viability EC50 with U2OS was recorded as 2690

Cc1cc(Nc2nc(N[C@@H](C)c3ccc(F)cc3)c(C#N)cc2F)n[nH]1 on U2OS gives relative viability EC50 = 1330

###

# Tested on: Calu-3
# test name: cell viability relative to DMSO; higher = less toxic
# stated conditions: 72 h; 1 nM
assay readout: cell viability (%)
Write the answer as a number in %, unit excluded.

CC1(C)O[C@@H]2C[C@H]3[C@@H]4C[C@H](F)C5=CC(=O)C=C[C@]5(C)[C@H]4[C@@H](O)C[C@]3(C)[C@]2(C(=O)CO)O1 [flunisolide]	98.5
CNC(=O)c1ccccc1Sc1ccc2c(/C=C/c3ccccn3)n[nH]c2c1 [axitinib]	108
O=C(NC[C@H](O)CO)c1ccncc1Nc1ccc(I)cc1F	96.8
COc1ccc(CNC(=O)c2cc(-c3cncc(C)c3)ncc2-c2nccs2)nc1OC [MK-3697]	89
Cc1cc(O)ccc1Cl [chlorocresol]	99.8
CC(=O)[C@H]1CC[C@H]2[C@@H]3CC[C@H]4C[C@H](O)CC[C@]4(C)[C@H]3C(=O)C[C@]12C [alfaxalone]	94.7
CN1CCN(CCCN2c3ccccc3Sc3ccc(S(=O)(=O)N(C)C)cc32)CC1 [thioproperazine]	98

Now for another entry.
The compound listed as COc1ccc(NC(=O)c2ccc(-c3ccc(-c4noc(C)n4)cc3C)cc2)cc1N1CCN(C)CC1 shows cell viability equal to 110

###

# System: A549-ACE2 infected with SARS-CoV-2
# test name: morphology score (similarity to uninfected cells); higher = more like uninfected cells
# stated conditions: 0.3 µM; 24 h
assay readout: morphology score

In the examples that follow, each entry is paired with its recorded morphology score.
C=CCN(C)CCCCCCOc1ccc(C(=O)c2ccc(Br)cc2)c(F)c1	-0.04
CC(C)Oc1ccc(-c2nc(-c3cccc4c3CC[C@@H]4NCCO)no2)cc1C#N	0.03
COc1ccc(NC(=O)c2ccc(-c3ccc(-c4noc(C)n4)cc3C)cc2)cc1N1CCN(C)CC1	0.15
CNC(=O)c1ccccc1Sc1ccc2c(/C=C/c3ccccn3)n[nH]c2c1	0.34
CN1CCCCC1Cn1cc(C(=O)c2cc([N+](=O)[O-])ccc2I)c2ccccc21 (centres undefined)	0.18

In the following, a different compound is considered.
// returns morphology score for Cc1nc(Nc2ccc(F)cc2)nc(N2CCc3ccccc3C2C)c1C (centres undefined) with A549-ACE2 infected with SARS-CoV-2; value = 0.16

###

# Tested on: HepG2
# test name: relative viability EC50 (midpoint between 100% and the lowest measured viability); higher = less toxic
# stated conditions: 72 h
assay readout: relative viability EC50 (µM)
Please give a number only; it is taken to be in µM.

Sample records with relative viability EC50:
CCCCCCCCCCCCCCCC[N+](C)(C)C	2.43
COc1ccc(NC(=O)c2ccc(-c3ccc(-c4noc(C)n4)cc3C)cc2)cc1N1CCN(C)CC1	3.38
S=C(NCc1ccc2c(c1)OCO2)N1CCN(c2ncnc3c2oc2ccccc23)CC1	1.75

Moving on to the next molecule.
Data point: CN1CC[C@@H](c2c(O)cc(O)c3c(=O)cc(-c4ccccc4Cl)oc23)[C@@H]1CO ; relative viability EC50 = 0.324

###

# Tested on: A549-ACE2
# test name: drug-induced phospholipidosis relative to tamoxifen; higher = more phospholipidosis
# stated conditions: 0.833333 µM; 24 h
assay readout: drug-induced phospholipidosis (%)
Report the figure in % without appending any unit label.

Recorded results for 5 compounds are shown here.
C[C@H]1[C@H](NC(=O)/C(=N\OC(C)(C)C(=O)O)c2csc(N)n2)C(=O)N1S(=O)(=O)O	-0.48
CN1CCCCC1Cn1cc(C(=O)c2cc([N+](=O)[O-])ccc2I)c2ccccc21 (stereo unspecified)	0.49
COc1c(OCCCN2CCOCC2)ccc2c1N=C(NC(=O)c1cnc(N)nc1)N1CCN=C21	-4.37
COc1ccc(C[C@H]2NC[C@H](O)[C@H]2OC(C)=O)cc1	-0.99
C=C[C@@]1(C)CC(=O)[C@]2(O)[C@@]3(C)[C@@H](O)CCC(C)(C)[C@@H]3[C@H](OC(=O)CCN(C)C)[C@H](OC(C)=O)[C@@]2(C)O1 [colforsin-daproate]	-0.39

Measured drug-induced phospholipidosis (A549-ACE2), entry OC(CCN1CCCCC1)(c1ccccc1)C1CC2C=CC1C2 (stereo unspecified) : 3.39

###

# Test system: HepG2
# test name: cell viability relative to DMSO; higher = less toxic
# stated conditions: 72 h; 100 nM
Items are presented alongside their recorded cell viability.
Supply the numeric figure in %, leaving out any unit text.

The cases that follow already have their cell viability on record.
CCNC1(C(N)=O)CCN(c2ncnc3c2nc(-c2ccccc2Cl)n3-c2ccc(Cl)cc2)CC1	100
CCCCCCCCCCCCCCCC[N+](C)(C)C	96.5
C[C@]12Cc3c[nH]nc3C[C@@H]1CC[C@@H]1[C@@H]2CC[C@@]2(C)[C@H]1CC[C@]2(C)O	101
CC(C)(C)C(=O)OCOC(=O)[C@@H]1N2C(=O)C[C@H]2S(=O)(=O)C1(C)C	96.2
CC1(C)CCC(C)(C)c2cc(C3(c4ccc(C(=O)O)cc4)OCCO3)ccc21	113

The reported HepG2 cell viability of O=C(O)c1cccnc1Nc1cccc(C(F)(F)F)c1 is 99.6

HepG2 cell viability of CN1CCC(=C2c3ccccc3CCc3sccc32)CC1 is 99.1

Query Cc1cc(-c2nc3cc(F)ccc3s2)ccc1NC(=O)[C@@H](N)CCCCN on HepG2; cell viability returned: 86.3

The observed cell viability for N#Cc1ccc(Oc2ccc3c(c2)COB3O)cc1 when tested with HepG2 stands at 112

Test item CN1CCN(c2ccc3[nH]c(-c4ccc5[nH]c(-c6ccc(O)cc6)nc5c4)nc3c2)CC1 ; HepG2; reported cell viability was 81.2

CN(C)Cc1c(C(=O)NCCOc2ccc(C(=O)NO)cc2)oc2ccccc12 tested on HepG2 gave cell viability: 76.5

Short answer on HepG2 for O=C(CC12CC3CC(CC(C3)C1)C2)Nc1cccc2nc(NCCNCCO)ccc12 , cell viability: 93.7

Form field, cell viability with HepG2, item CC(N)Cc1ccc(O)cc1 (stereo unspecified) [hydroxyamphetamine] : 93.4

###

# Test system: Calu-3
# test name: cell viability relative to DMSO; higher = less toxic
# stated conditions: 72 h; 1000 nM
assay readout: cell viability (%)
The response must be a number in % with no trailing unit.

Check out these entries, answers already filled in.
CN1C(=O)N(c2ccc(C#N)c(C(F)(F)F)c2)C(=O)[C@]1(CO)c1ccccc1 [GLPG0492-R-enantiomer]	105
CC(=O)c1c(O)cc(C)oc1=O [dehydroacetic-acid]	101

Per the record, O=C1C=CC[C@@H]2[C@H]3CCCN4CCC[C@@H](CN12)[C@@H]34 has cell viability of 98

Form: compound = c1ccc(OCc2ccc(CCCN3CCOCC3)cc2)cc1 ; cell viability = 96.3

Entry C[C@@]1(F)[C@H](O)[C@@H](CO)O[C@H]1n1ccc(N)nc1=O , cell viability reported as 100

The recorded cell viability for entry CCCCOc1ccc(C(=O)Nc2ccc(F)cc2F)cc1 equals 99.2

Input O=C(O)c1cccnc1Nc1cccc(C(F)(F)F)c1 . Output cell viability: 99.7

###

# Test system: HepG2
# test name: relative viability EC50 (midpoint between 100% and the lowest measured viability); higher = less toxic
# stated conditions: 72 h
Documented relative viability EC50 across a set of compounds

COC(=O)N[C@H](C(=O)N1CCC[C@H]1C(=O)Nc1ccc([C@@H]2CC[C@@H](c3ccc(NC(=O)[C@@H]4CCCN4C(=O)[C@@H](NC(=O)OC)C(C)C)cc3)N2c2ccc(C(C)(C)C)cc2)cc1)C(C)C	> 10 µM
CNC(=O)[C@H](Cc1c[nH]c2ccccc12)NC(=O)[C@@H](CC(=O)NO)CC(C)C	> 10 µM
N#Cc1ccc(Oc2ccc3c(c2)COB3O)cc1	> 10 µM
COc1ccc(CNC(=O)c2sc3nc(C)cc(C)c3c2N)cc1	> 10 µM
C=CCOc1ccccc1OCC(O)CNC(C)C (stereo not drawn)	> 10 µM

The compound listed as Cc1ccccc1CN1C(=O)C2=C(CCN(Cc3ccccc3)C2)N2CCN=C12 shows relative viability EC50 equal to 2.39 µM

The compound CCN1CCC(n2cc(CNc3cc(Cl)c4ncc(C#N)c(Nc5ccc(F)c(Cl)c5)c4c3)nn2)CC1 showed relative viability EC50 equal to 3.19 µM

Field relative viability EC50 (entry Cc1csc2c(N[C@@H](C)CN3CCN(S(=O)(=O)c4ccc(Cl)c(Cl)c4)CC3)ncnc12 ) reads 0.451 µM

relative viability EC50 measured on O=C(NNc1nc2cc(F)ccc2n2cccc12)c1cnccn1 = 0.323 µM

Entry CCCCOc1ccc(C(=O)Nc2ccc(F)cc2F)cc1 , relative viability EC50 reported as > 10 µM

Query O=C(NC[C@H](O)CO)c1ccncc1Nc1ccc(I)cc1F yields relative viability EC50 of 0.0178 µM
